target: Follistatin (Homo sapiens) (UniProt P19883); experiment: follistatin binders on small-molecule microarrays, primary screen, biochemical, small-molecule microarray, 635/667 nm fluorescence (AID 1132); settings: FST binding, 635 nm fluorescence, higher = more signal
Sequence (P19883 whole entry, looked up): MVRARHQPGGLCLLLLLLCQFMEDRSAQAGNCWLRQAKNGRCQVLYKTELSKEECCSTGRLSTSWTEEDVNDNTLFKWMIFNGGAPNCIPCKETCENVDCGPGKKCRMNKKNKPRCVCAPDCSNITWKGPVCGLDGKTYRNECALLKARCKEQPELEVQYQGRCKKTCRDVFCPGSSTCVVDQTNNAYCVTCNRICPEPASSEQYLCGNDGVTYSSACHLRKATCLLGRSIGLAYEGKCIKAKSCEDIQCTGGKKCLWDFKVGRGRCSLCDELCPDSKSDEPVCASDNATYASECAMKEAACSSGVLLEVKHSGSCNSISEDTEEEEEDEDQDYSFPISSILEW
Kindly supply the reported composite z-score values for the records listed here.

# return recorded composite z-score for input Cc1ccc2[nH]c3nc(CCCn4ccnc4-c4ccccc4)nnc3c2c1
0.757

Tell me its composite z-score given CCOC(=O)[C@H](CC(C)C)NC(=O)CCC1CC(OC(=O)NCc2ccc3c(c2)OCO3)CC2(CCCC(COC(=O)NCCOC)O2)O1 (some centres undefined) as the entry.
0.589

Indicate its recorded composite z-score; the compound in question is CCOC(=O)CCN1C(=O)[C@H]2[C@H]3[C@H](O)[C@H](O)CC(=NO[C@@H]4O[C@H](CO)[C@@H](O)[C@H](O)[C@H]4O)[C@@H]3CC[C@H]2C1=O
1.22

Please list composite z-score recorded for the compound C[C@@H](c1ccccc1)N1C(=O)[C@H]2[C@H]3[C@H](O)[C@H](O)CC(=NOC[C@@H](O)COCc4ccco4)[C@H]3CC[C@H]2C1=O
1.1

Please look at this compound and report its composite z-score: CON=C[C@@H](OC)[C@H](C)C=CCC(=O)OC
0.0902

Write down composite z-score measured for item CCN1C(=O)[C@H]2[C@H]3[C@H](O)[C@H](O)CC(=NO[C@@H](C)c4cc(-c5c(C)cc(C)cc5C)no4)[C@@H]3CC[C@H]2C1=O
0.809

Item CC(C)CON=C1[C@H]2CCn3c(=O)n(C)c(=O)n3[C@H]2[C@H](O)[C@@H]2O[C@H]12 : provide composite z-score
0.581

Determine its reported composite z-score: CC(C)=CCCC(C)=CCON=C1C[C@@H](O)[C@@H](O)[C@@H]2[C@@H]3C(=O)N(C4CCCCC4)C(=O)[C@@H]3CC[C@H]12
1.06

Report composite z-score for CC(CCC(=O)OC[C@H]1O[C@H](C#Cc2ccccc2)C=C[C@@H]1Oc1ccc(C)cc1)=NO[C@@H](C)c1cc(-c2c(C)cc(C)cc2C)no1
-0.921

Complete the entry with composite z-score for COc1ccc(COC(=O)NN=C2C[C@@H](O)[C@@H](O)[C@@H]3[C@@H]4C(=O)N([C@@H](C)c5ccccc5)C(=O)[C@@H]4CC[C@@H]23)cc1
0.244

Tell us which composite z-score value is on record for CC(C)=NO[C@H](C)c1cn([C@@H]2COC[C@H]2O)nn1
0.349

For the compound O=C1[C@H]2[C@H]3[C@H](O)[C@H](O)CC(=NO[C@@H]4O[C@H](CO)[C@@H](O)[C@H](O)[C@H]4O)[C@@H]3CC[C@H]2C(=O)N1C[C@@H]1CCCO1 , give its reported composite z-score.
0.396

Look up composite z-score of Cc1cc2c(nc1C)CCCCN2CC(O)CN1CCCc2nc(-c3ccc(Br)cc3)ccc21 (centres undefined) and report it.
1.06

Name the recorded composite z-score of the compound listed here: CCCNC(=O)OC[C@H]1O[C@H](CCON=C2c3cc(OC)ccc3O[C@H](c3cccc(OC)c3)[C@H]2O)C=C[C@@H]1Oc1ccc(OC)cc1
0.418

Output composite z-score of CC(=O)OC[C@H]1O[C@H](C#CCC2CCCCC2)C=C[C@@H]1OC(C)=O
0.675

Entry CCOC(=O)[C@H](CC(C)C)NC(=O)CCC1CC(OC(=O)NCc2ccc3c(c2)OCO3)CC2(CCCC(COC(=O)NCc3ccccc3)O2)O1 (some centres undefined) needs its composite z-score filled in; supply it.
0.659

In one line, give reported composite z-score of the entry CC(C)=CCCC(C)=CCON=C1C[C@@H](O)[C@@H](O)[C@@H]2[C@@H]3C(=O)N(c4cccc(Oc5ccccc5)c4)C(=O)[C@@H]3CC[C@H]12 .
0.559

Given CCOC(=O)CCN1C(=O)[C@H]2[C@H]3[C@H](O)[C@H](O)CC(=NNC(=O)OCc4ccc(OC)cc4)[C@H]3CC[C@H]2C1=O , respond with its composite z-score.
-0.0495

Quote composite z-score reported for C[C@@H]1CC[C@H]2C(=O)N3[C@@H](CC[C@@H](C)[C@@H]3c3ccc(Br)cc3)C(=O)N2[C@H]1c1ccc(Br)cc1 please.
0.301

Tell me its composite z-score given COC(=O)[C@H](C)NC(=O)CCC1CC(OC(=O)NCc2cccc3ccccc23)CC2(CCCC(COC(=O)NCCCN3CCCC3=O)O2)O1 (some centres undefined) as the entry.
0.413

Give the reported composite z-score for this compound. COc1ccc(O[C@H]2C=C[C@@H](c3ccccc3)O[C@@H]2COC(=O)CCC(C)=NOC[C@@H](O)COCc2ccco2)cc1
-2.77

Give me measured composite z-score, please, for this compound: C=CC[C@@H]1C=CC(ON=C(C)C)[C@@H](CO)O1 (some centres undefined)
-0.356

Report composite z-score, nothing else, for this compound: CC(C)CN1CCc2nc(-c3ccccc3)c3c(c2C1)CO[C@@H](C)C3
0.785

Report composite z-score, nothing else, for this compound: CC(C)[C@@H](OCc1ccccc1)[C@H](C)CON=C1[C@H]2CCn3c(=O)n(-c4ccccc4)c(=O)n3[C@H]2[C@H](O)[C@@H]2O[C@H]12
0.759

Assign composite z-score to the following record: COc1ccc(OC[C@@H](CO)OC)cc1
0.649

Give the reported value of composite z-score for this record: COc1ccc(O[C@H]2C=C[C@@H](c3ccccc3)O[C@@H]2CON=C2c3cc(OC)ccc3O[C@H](c3cccc(OC)c3)[C@H]2O)cc1
0.618

Look up and report measured composite z-score for this entry: COC(=O)[C@@H]1CC[C@H](C)[C@@H](c2ccc(C)cc2)N1C(=O)c1ccc(C=NOC[C@@H](O)[C@H]2O[C@@H]3OC(C)(C)O[C@@H]3[C@H]2O)cc1
0.49

In one line, give reported composite z-score of the entry O=C1[C@H]2CCn3c(=O)n(Cc4cc5c(cc4Cl)OCO5)c(=O)n3[C@H]2[C@H](O)[C@@H]2O[C@H]12 .
0.596

Indicate the recorded composite z-score value for this compound: CC(=O)OC[C@H]1O[C@H](CCON=C(C)CCN2CCCc3nc(C)c(C)cc32)C=C[C@@H]1OC(C)=O
1.15

These entries and their values trace back to PubChem BioAssay.
